- tested_target: T1, GST-INADL PDZ domain 5 (Homo sapiens (Human)), Q8NI35
- T1 chain: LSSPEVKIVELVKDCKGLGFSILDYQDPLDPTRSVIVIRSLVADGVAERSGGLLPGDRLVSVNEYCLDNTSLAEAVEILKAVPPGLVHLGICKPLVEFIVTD
- assay_info: G' assay; note: key of the grades not given here
quantity_kind: Classification (A450 class)
Entry rule: numbers only, all in A450 class.

binder: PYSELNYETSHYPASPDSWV (modifications not checked) [catenin - delta 2]
unit_tag: A450 class
Classification: 1
--
binder: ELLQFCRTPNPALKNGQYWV (modifications not checked) [CSPG4 (chondroitin sulfae proteoglycan 4, melanoma-associated)]
unit_tag: A450 class
Classification: 5
--
binder: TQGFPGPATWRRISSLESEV (modifications not checked) [NMDA Glutamate Receptor 2C (cysteine-free)]
unit_tag: A450 class
Classification: 1

Next item in the queue.
So, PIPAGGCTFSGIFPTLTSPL (modifications not checked) [KIA 1481] ? Its Classification was 1

Data credit: patent US20050282743A1
